The reported measurements were obtained from paper PMC6923798.

Target: EGFR (Homo sapiens)
Sequence (P00533 25-1210): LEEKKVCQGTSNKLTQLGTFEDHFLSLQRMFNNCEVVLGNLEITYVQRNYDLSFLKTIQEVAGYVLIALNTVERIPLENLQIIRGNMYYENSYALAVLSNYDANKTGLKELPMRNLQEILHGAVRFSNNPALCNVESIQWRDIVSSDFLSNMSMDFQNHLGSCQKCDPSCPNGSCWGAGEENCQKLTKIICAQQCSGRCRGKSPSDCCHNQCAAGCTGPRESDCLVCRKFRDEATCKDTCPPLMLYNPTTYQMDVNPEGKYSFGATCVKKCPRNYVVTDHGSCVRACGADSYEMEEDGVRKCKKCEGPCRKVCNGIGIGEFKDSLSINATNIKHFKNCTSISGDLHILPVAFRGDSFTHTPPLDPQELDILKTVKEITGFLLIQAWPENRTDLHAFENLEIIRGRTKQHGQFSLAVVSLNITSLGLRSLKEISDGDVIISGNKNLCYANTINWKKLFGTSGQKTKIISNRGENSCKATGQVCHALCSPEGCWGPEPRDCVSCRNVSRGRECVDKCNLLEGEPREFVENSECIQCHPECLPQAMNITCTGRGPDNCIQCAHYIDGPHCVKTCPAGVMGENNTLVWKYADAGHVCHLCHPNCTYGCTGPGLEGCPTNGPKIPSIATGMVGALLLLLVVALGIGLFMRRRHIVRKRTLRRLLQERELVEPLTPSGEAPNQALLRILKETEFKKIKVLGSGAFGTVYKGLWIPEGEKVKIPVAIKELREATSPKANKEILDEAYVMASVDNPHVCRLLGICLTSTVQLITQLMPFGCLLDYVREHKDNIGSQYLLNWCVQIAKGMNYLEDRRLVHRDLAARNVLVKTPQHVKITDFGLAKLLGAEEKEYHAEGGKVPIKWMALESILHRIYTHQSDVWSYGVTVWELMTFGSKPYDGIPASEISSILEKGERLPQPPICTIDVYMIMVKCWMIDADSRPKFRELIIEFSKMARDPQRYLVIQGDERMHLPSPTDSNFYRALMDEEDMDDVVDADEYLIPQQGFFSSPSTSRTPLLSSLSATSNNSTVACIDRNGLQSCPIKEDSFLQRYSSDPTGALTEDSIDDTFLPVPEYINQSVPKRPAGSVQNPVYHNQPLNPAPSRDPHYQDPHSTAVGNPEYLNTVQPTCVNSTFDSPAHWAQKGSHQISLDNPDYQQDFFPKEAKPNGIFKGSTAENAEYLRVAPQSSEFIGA
Assay: EGFR kinase assay
Type: biochemical
Exercise: state measured IC50 for each of the compounds provided.
Give bare numbers, in µM.

# annotated cases, reported IC50 shown
compound	IC50 (µM)
COc1cc(-c2nnc(SCC(=O)Nc3ccc(C(=O)C=Cc4ccccc4)cc3)o2)cc(OC)c1OC [Compound 8t]	22.3
COc1cc(C=CC(=O)c2ccc(NC(=O)CSc3nnc(-c4cc(OC)c(OC)c(OC)c4)o3)cc2)cc(OC)c1OC [Compound 8x]	20.5
COc1ccc(C=CC(=O)c2ccc(NC(=O)CSc3nnc(-c4ccc(Cl)cc4)o3)cc2)cc1OC [Compound 8h]	30.2
O=C(CSc1nnc(-c2ccc(Cl)cc2)o1)Nc1ccc(C(=O)C=Cc2ccccc2)cc1 [Compound 8e]	59.4
COc1ccc(C=CC(=O)c2ccc(NC(=O)CSc3nnc(-c4ccc(OC)c(OC)c4)o3)cc2)cc1 [Compound 8q]	11.4
COc1ccc(/C=C/C(=O)c2ccc(NC(=O)CSc3nnc(-c4ccc(OC)cc4)o3)cc2)cc1 [Compound 8l]	12.3

Go through the items and report each one's IC50.
1. COc1ccc(C=CC(=O)c2ccc(NC(=O)CSc3nnc(-c4ccc(OC)c(OC)c4)o3)cc2)cc1OC [Compound 8r]
2. COc1ccc(-c2nnc(SCC(=O)Nc3ccc(C(=O)C=Cc4ccc(Cl)cc4)cc3)o2)cc1OC [Compound 8p]
3. COc1ccc(-c2nnc(SCC(=O)Nc3ccc(C(=O)C=Cc4cc(OC)c(OC)c(OC)c4)cc3)o2)cc1OC [Compound 8s]
4. COc1ccc(-c2nnc(SCC(=O)Nc3ccc(C(=O)C=Cc4ccccc4)cc3)o2)cc1OC [Compound 8o]
5. COc1ccc(C=CC(=O)c2ccc(NC(=O)CSc3nnc(-c4ccccc4)o3)cc2)cc1OC [Compound 8c]

Response:
63.3
13.3
12.3
71.1
64.3

Go through the items and report each one's IC50.
1. COc1ccc(-c2nnc(SCC(=O)Nc3ccc(C(=O)C=Cc4ccccc4)cc3)o2)cc1 [Compound 8j]
2. COc1ccc(C=CC(=O)c2ccc(NC(=O)CSc3nnc(-c4ccc(Cl)cc4)o3)cc2)cc1 [Compound 8g]

Response:
11.5
12.7

----------
System: KG-1a
Experiment: MTT anti-proliferative assay
Assay type: cell-based, human
Details: Homo sapiens, KG-1a, 24 h, read-out: IC50 ± SD, KG-1a
Exercise: state measured pIC50 for each of the molecules provided.
Answers are plain numbers, as −log10 of the molar value.

test_smiles	tested_system	pIC50
COc1cc(-c2nnc(SCC(=O)Nc3ccc(C(=O)C=Cc4ccc(Cl)cc4)cc3)o2)cc(OC)c1OC	KG-1a	4.02
COc1ccc(/C=C/C(=O)c2ccc(NC(=O)CSc3nnc(-c4ccc(OC)cc4)o3)cc2)cc1	KG-1a	4.42
COc1ccc(-c2nnc(SCC(=O)Nc3ccc(C(=O)C=Cc4cc(OC)c(OC)c(OC)c4)cc3)o2)cc1OC	KG-1a	4.49

Go through the items and report each one's pIC50.
1. COc1ccc(-c2nnc(SCC(=O)Nc3ccc(C(=O)C=Cc4ccccc4)cc3)o2)cc1
2. O=C(CSc1nnc(-c2ccccc2)o1)Nc1ccc(C(=O)C=Cc2ccc(Cl)cc2)cc1
3. COc1ccc(-c2nnc(SCC(=O)Nc3ccc(C(=O)C=Cc4ccc(Cl)cc4)cc3)o2)cc1OC
4. COc1ccc(C=CC(=O)c2ccc(NC(=O)CSc3nnc(-c4ccc(Cl)cc4)o3)cc2)cc1OC

Response:
4.60
4.08
4.65
4.07
